target.system: PRMT5/MEP50 complex (Homo sapiens)
Construct: purchased Reaction Biology Corporation
Sequence (O14744 2-637 limits assumed): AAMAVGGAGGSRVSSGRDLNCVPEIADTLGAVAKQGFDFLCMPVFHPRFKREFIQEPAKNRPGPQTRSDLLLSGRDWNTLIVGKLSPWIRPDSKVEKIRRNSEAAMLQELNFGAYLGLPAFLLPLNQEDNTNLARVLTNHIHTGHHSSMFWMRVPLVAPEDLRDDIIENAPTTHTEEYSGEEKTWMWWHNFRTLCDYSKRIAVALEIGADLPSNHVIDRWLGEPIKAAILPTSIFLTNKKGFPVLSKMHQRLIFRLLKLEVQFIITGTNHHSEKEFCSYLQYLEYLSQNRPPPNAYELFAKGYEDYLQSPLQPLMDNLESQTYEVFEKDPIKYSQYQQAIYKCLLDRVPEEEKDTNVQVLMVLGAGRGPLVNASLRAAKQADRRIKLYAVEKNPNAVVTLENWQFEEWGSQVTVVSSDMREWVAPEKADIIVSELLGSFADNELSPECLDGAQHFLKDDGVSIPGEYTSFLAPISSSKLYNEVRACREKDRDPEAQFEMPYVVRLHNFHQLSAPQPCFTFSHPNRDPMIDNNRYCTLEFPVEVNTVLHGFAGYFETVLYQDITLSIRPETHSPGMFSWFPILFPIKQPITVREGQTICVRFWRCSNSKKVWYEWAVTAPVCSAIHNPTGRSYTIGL
Sequence (Q9BQA1 2-342 partner limits assumed): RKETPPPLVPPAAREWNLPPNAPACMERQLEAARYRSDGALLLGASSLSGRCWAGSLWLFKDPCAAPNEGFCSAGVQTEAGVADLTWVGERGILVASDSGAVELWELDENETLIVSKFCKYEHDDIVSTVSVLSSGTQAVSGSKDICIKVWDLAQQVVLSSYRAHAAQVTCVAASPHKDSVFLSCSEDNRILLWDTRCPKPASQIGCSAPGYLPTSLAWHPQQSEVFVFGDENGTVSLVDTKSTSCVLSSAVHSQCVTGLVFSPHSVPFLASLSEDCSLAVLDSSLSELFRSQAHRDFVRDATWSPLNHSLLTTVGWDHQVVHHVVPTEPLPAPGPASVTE
assay.method.text: PRMT5:MEP50 HotSpot Assay (full-length histone H2A substrate, plus and minus MTA)
Format: biochemical
measurement.parameters: IC50 + 2 μM MTA, in the presence of 2 μM MTA
endpoint.name: IC50 (nM)

Worked examples, 4 compounds total:
compound | endpoint.name | unit.name | reported.result
Cn1ncc(-c2ccc3c(=O)[nH]nc(CN)c3c2)c1-c1sc2cnccc2c1C#N | IC50 | nM | 376
Cc1cc(OC2CC2)c(C#N)c(-c2c(-c3cc(C)c4c(=O)[nH]nc(CN)c4c3)cnn2C)c1F (single isomer, unassigned) [Example 16-43] | IC50 | nM | 2000
C[C@@H]1C[C@H]1Oc1ccc(F)c(-c2c(-c3ccc4c(=O)[nH]nc(CN)c4c3)cnn2C)c1C#N (atropisomer, axis not shown; (M)) [Example 16-66] | IC50 | nM | 107
CCOc1cc(-c2cnn(C)c2-c2c(F)c(C)cc(OC3CC3)c2C#N)cc2c(CN)n[nH]c(=O)c12 (single isomer, unassigned) [Example 16-76] | IC50 | nM | 111

I: Cc1c(F)c(-c2c(-c3cc(Cl)c4c(=O)[nH]nc(CN)c4c3)cnn2C)c(C#N)c2cc(Cl)cnc12 (single isomer, unassigned) [Example 16-109]
II: Cn1ncc(-c2ccc3c(c2)C(CCN)NC3=O)c1-c1sc2ccccc2c1C#N (stereo not drawn)
Hello, I am sorting some records. Could you say if I or II has the smaller IC50 value? Lab log: write the label of the selected item as the result.
II
(II: 635 nM, I: 1370 nM)

----------
target.system: PRMT5/MEP50 complex (Homo sapiens)
Construct: purchased Reaction Biology Corporation
assay.method.text: PRMT5:MEP50 HotSpot Assay (full-length histone H2A substrate, plus and minus MTA)
Type: biochemical
measurement.parameters: IC50 + 2 μM MTA, in the presence of 2 μM MTA
endpoint.name: IC50 (µM)

Check out these entries, answers already filled in.
compound | target.system | IC50 [µM]
Cc1c(F)c(-c2c(-c3cc(Cl)c4c(=O)[nH]nc(CN)c4c3)cnn2C)c(C#N)c2ccccc12 (single isomer, unassigned) [Example 16-60] | PRMT5/MEP50 complex (Homo sapiens) | 0.0147
Cn1ncc(-c2ccc3c(=O)[nH]nc(CN)c3c2)c1-c1c(C#N)cc2ccccc2c1F (single isomer, unassigned) [Example 16-53] | PRMT5/MEP50 complex (Homo sapiens) | 0.157
Cc1c(F)c(-c2c(-c3cc(C)c4c(=O)[nH]nc(CN)c4c3)cnn2C)c(C#N)c2ccccc12 (single isomer, unassigned) [Example 16-42] | PRMT5/MEP50 complex (Homo sapiens) | 0.00455
Cc1c(F)c(-c2c(-c3cc(Cl)c4c(=O)[nH]nc(CN)c4c3)cnn2C)c(C#N)c2ccccc12 (single isomer, unassigned) [Example 16-59] | PRMT5/MEP50 complex (Homo sapiens) | 0.318
Cc1cnc2c(C#N)c(-c3c(-c4ccc5c(=O)[nH]nc(CN)c5c4)cnn3C)c(F)c(C)c2c1 (atropisomer, axis not shown; (P)) [Example 16-93] | PRMT5/MEP50 complex (Homo sapiens) | 0.821
Cn1ncc(-c2ccc3c(=O)[nH]nc(CN)c3c2)c1-c1c(F)ccc(OC2CC2)c1C#N (single isomer, unassigned) [Example 16-21] | PRMT5/MEP50 complex (Homo sapiens) | 0.462
Cn1ncc(-c2cc(Cl)c3c(=O)[nH]nc(CN)c3c2)c1-c1c(F)cc2ccccc2c1C#N (single isomer, unassigned) [Example 16-12] | PRMT5/MEP50 complex (Homo sapiens) | 0.0264
C[C@H]1C[C@@H]1Oc1ccc(F)c(-c2c(-c3ccc4c(=O)[nH]nc(CN)c4c3)cnn2C)c1C#N (single isomer, unassigned) [Example 16-67] | PRMT5/MEP50 complex (Homo sapiens) | 0.269

P: Cn1ncc(-c2ccc3c(=O)[nH]nc(CN)c3c2)c1-c1c(C#N)cc2[nH]cnc2c1Cl (atropisomer, axis not shown; (M)) [Example 16-115]
Q: C[C@H](N)c1n[nH]c(=O)c2ccc(-c3cnn(C)c3-c3ccc4ccccc4c3C#N)nc12
R: Cn1ncc(-c2cc(Cl)c3c(=O)[nH]nc(CN)c3c2)c1-c1c(F)c(Cl)cc(OC2CC2)c1C#N (single isomer, unassigned) [Example 16-28]
Sort entries by IC50 from minimum to maximum value. When ranking, write the labels in the order the request describes.
R, Q, P
(R: 0.081 µM, Q: 0.2 µM, P: 8.72 µM)
